meta.source: patent US20250171542A1

- Target entity: T1, B7-H3 (Sino Biological, Cat #11188-H08H) (UniProt Q5ZPR3 29-461)
- T1 sequence (looked up): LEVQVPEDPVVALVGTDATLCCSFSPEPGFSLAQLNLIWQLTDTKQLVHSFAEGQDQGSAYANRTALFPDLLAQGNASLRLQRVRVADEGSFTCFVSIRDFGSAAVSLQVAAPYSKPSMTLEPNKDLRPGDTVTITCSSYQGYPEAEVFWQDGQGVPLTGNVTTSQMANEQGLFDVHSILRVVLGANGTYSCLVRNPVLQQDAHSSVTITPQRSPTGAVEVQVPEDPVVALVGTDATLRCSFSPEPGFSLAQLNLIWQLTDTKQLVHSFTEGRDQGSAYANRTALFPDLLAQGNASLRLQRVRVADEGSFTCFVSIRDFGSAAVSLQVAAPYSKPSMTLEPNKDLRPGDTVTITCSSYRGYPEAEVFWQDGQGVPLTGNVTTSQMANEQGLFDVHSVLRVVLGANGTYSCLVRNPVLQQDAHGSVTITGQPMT
- Experiment summary: ELISA
Assay endpoint: binding result

Binder	Value reported
74F4 (antibody, human IgG1, V domains shown) VH: QEQLEESGGGLVQPEGSLTLTCTASGFSFSGDYYMSWVRQAPGKGLEWIASIYTGSLNTYYATWAKGRFTISLTSSTTVTLQMTSLTAADTATYFCARRNKNADYGHFDLWGPGTLVTVSS VL: YDMTQTPASVEVAVGGTVTIKCQASQSINDRLAWYQQSPGQPPKLLIYGASTLASGVPSRFKGSGSGTDFTLTISDLECADAATYYCQQGWTVSSLDNAFGGGTEVVAK	no binding
74A9 (antibody, human IgG1, V domains shown) VH: QSVEESGGRLVTPGTPLTLTCAVSGFSLSTYALGWVRQAPGKGLEWIGSISIGGATYYASWAKGRFTISKTSTTVDLKIASPTTEDTATYFCARNVDSIYLDAFHTWGPGTLVTVSL VL: DIVMTQTPASVEAAVGGTVTIKCQASQNIYNNLAWYQQKPGQPPKLLIYRASTLASGVPSRFKGSGSGTEYTLTISDLECDDAATYYCQTYYLTTTTNAFGGGTEVVVK	no binding
33H7 (antibody, human IgG1, V domains shown) VH: QEQLVESGGGLVQPEGSLTVTCTASGFDLSRYFYMSWVRQAPGKGLEWIASISTGSDITDYASWAKGRFTISKTSSTTVTLQMTTLTAADTAIYFCARWTSGGGGFGLWGPGTLVTVSS VL: QVLTQTASPVSAAVGGTVTLNCQSSQSIYNNYLSWYQQRAGQPPKLLIYSTATLASGVPSRFKGSGSGTQFTLTISEIQCEDAATYYCQGYYSGYIWTFGGGTEVVVK	no binding
